Cited source for all entries: paper PMC4185360

target or test system: CYP2D6 (Homo sapiens, UniProt P10635)
Sequence (P10635 whole entry): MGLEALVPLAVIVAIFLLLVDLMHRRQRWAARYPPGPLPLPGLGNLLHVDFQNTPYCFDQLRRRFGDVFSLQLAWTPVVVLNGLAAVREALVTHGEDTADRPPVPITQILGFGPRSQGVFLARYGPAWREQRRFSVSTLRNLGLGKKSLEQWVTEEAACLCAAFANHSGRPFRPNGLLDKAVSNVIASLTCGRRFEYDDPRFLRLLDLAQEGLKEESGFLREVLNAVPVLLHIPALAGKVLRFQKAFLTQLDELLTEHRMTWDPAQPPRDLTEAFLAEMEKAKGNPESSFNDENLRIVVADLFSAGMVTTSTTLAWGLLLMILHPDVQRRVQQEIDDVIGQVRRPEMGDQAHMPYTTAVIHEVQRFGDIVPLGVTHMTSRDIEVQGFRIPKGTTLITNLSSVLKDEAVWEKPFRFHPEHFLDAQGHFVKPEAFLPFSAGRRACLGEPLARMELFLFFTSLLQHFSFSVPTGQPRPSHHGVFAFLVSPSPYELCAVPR
protocol notes: in vitro
condition description: human microsomes, probe marker substrate cocktail, O-demethylation (CYP2D6)
Counter-ions that a name gives are not always drawn.
quantity: inhibition at 10 min, 30 µM (%)
Give the quantity in %, number only.

**Query** Checklist item: inhibition at 10 min, 30 µM tested on CYP2D6 (Homo sapiens, UniProt P10635), entry Cc1ccc(C(=O)Nc2ccc(S(=O)(=O)O)c3cc(S(=O)(=O)O)cc(S(=O)(=O)O)c23)cc1NC(=O)c1cccc(NC(=O)Nc2cccc(C(=O)Nc3cc(C(=O)Nc4ccc(S(=O)(=O)O)c5cc(S(=O)(=O)O)cc(S(=O)(=O)O)c45)ccc3C)c2)c1 [suramin, Suramin sodium salt] , value?
**Result** 40
